FYI, the data here is from ChEMBL document CHEMBL5252539.

test: Selectivity index, ratio of IC50 for cytostatic activity against human MONO-MAC-6 cells to MIC for antimycobacterial activity against Mycobacterium tuberculosis H37Rv ATCC 27294; format: toxicity, cell-based; details: read-out: Selectivity Index
readout label: selectivity ratio

C/C(=N\OCC(=O)N[C@H](C(=O)N[C@@H](CCCCN)C(=O)N1CCC[C@H]1C(=O)N1CCC[C@H]1C(=O)N[C@@H](CCCNC(=N)N)C(=O)O)[C@@H](C)O)c1ccc(NC(=O)c2cc(Br)ccc2O)cc1 = > 9.9
O=C(Nc1ccc(Cl)c(Cl)c1)c1cc(Cl)ccc1O = 2.4
C/C(=N\OCC(=O)N[C@H](C(=O)O)[C@@H](C)O)c1ccc(NC(=O)c2cc(Br)ccc2O)cc1 = > 0.5

Kindly review the next compound as well.
Asked: Entry `C/C(=N\OCC(=O)NCC(=O)N[C@@H](Cc1ccccc1)C(=O)N[C@@H](CC(C)C)C(=O)NCC(=O)N[C@H](C(=O)N[C@@H](CCCCN)C(=O)N1CCC[C@H]1C(=O)N[C@@H](CCCNC(=N)N)C(=O)O)[C@@H](C)O)c1ccc(NC(=O)c2cc(Br)ccc2O)cc1` : reported selectivity ratio = ?
Given back: > 6.3

----------
system: Mycobacterium tuberculosis; experiment: […] antimycobacterial activity against Mycobacterium tuberculosis H37Rv ATCC 27294 infected in human MONO-MAC-6 cells assessed as reduction in colony forming unit at 250 uM for 6 days by colony counting based analysis; assay type: functional, organism-based; settings: time 6.0 day
Active and inactive are the calls of the source. The calls are words filed in the database; no cut-off is given here. *1 amine or outer side, *2 acyl side, *3 side chain or, on linkers, in order; H or OH if unused. Where a SMILES comes first, the peptide text is derived from it. [ ]: non-standard residue; d: D form. The star is where a group is joined. X1 = C/C(=N\OCC(=O)[*:2])c1ccc(N[*:1])cc1; Benzoyl(5-Br-2-OH) = O=C(c1cc(Br)ccc1O)*
readout label: Activity

C/C(=N\OCC(=O)N[C@H](C(=O)N[C@@H](CCCCN)C(=O)N1CCC[C@H]1C(=O)N[C@@H](CCCCN)C(=O)NCC(=O)N[C@H](C(=O)N[C@@H](CCCCN)C(=O)N1CCC[C@H]1C(=O)N[C@@H](CCCCN)C(=O)NCC(N)=O)[C@@H](C)O)[C@@H](C)O)c1ccc(NC(=O)c2cc(Br)ccc2O)cc1 ({Benzoyl(5-Br-2-OH)}-[X1]TKPKGTKPKG-NH2) = Active
C/C(=N\OCC(=O)N[C@H](C(=O)N[C@@H](CCCCN)C(=O)N1CCC[C@H]1C(=O)N[C@@H](CCCCN)C(=O)NCC(=O)O)[C@@H](C)O)c1ccc(NC(=O)c2cc(Br)ccc2O)cc1 ({Benzoyl(5-Br-2-OH)}-[X1]TKPKG-OH) = Active

----------
assay: Selectivity index, ratio of IC50 for cytostatic activity against human HepG2 cells to MIC for antimycobacterial activity against Mycobacterium tuberculosis H37Rv ATCC 27294; type: toxicity, cell-based; conditions: read-out: Selectivity Index
*1 amine or outer side, *2 acyl side, *3 side chain or, on linkers, in order; H or OH if unused. Where a SMILES comes first, the peptide text is derived from it. [ ]: non-standard residue; d: D form. The star is where a group is joined. X1 = C/C(=N\OCC(=O)[*:2])c1ccc(N[*:1])cc1; Benzoyl(5-Br-2-OH) = O=C(c1cc(Br)ccc1O)*; Palmitoyl = CCCCCCCCCCCCCCCC(=O)*
Response field label: string, one of T (selectivity ratio strictly below 3) or F.

O=C(Nc1ccc(Cl)c(Cl)c1)c1cc(Br)ccc1O = T

Asked: Please determine if C/C(=N\OCC(=O)N[C@H](C(=O)N[C@@H](CCCCN)C(=O)N1CCC[C@H]1C(=O)N[C@@H](CCCCN)C(=O)NCC(=O)O)[C@@H](C)O)c1ccc(NC(=O)c2cc(Br)ccc2O)cc1 ({Benzoyl(5-Br-2-OH)}-[X1]TKPKG-OH) is below 3 in terms of selectivity ratio.
Given back: T

Asked: In plain terms, does `CC(=O)c1ccc(NC(=O)c2cc(Cl)ccc2O)cc1` come in under 3 for selectivity ratio?
Given back: T

Asked: Item `O=Cc1ccc(O)c(C(=O)Nc2ccc(C(F)(F)F)cc2)c1` : selectivity ratio beneath 3, strictly?
Given back: T

Asked: Dear colleague, could you confirm whether selectivity ratio of `O=C(Nc1ccc(Cl)c(Cl)c1)c1cc(Cl)ccc1O` falls below 3? Thanks.
Given back: T

Asked: Could you please tell me whether selectivity ratio recorded for C/C(=N\OCC(=O)NCC(=O)N[C@@H](Cc1ccccc1)C(=O)N[C@@H](CC(C)C)C(=O)NCC(=O)N[C@H](C(=O)N[C@@H](CCCCN)C(=O)N1CCC[C@H]1C(=O)N[C@@H](CCCCN)C(=O)NCC(=O)O)[C@@H](C)O)c1ccc(NC(=O)c2cc(Br)ccc2O)cc1 ({Benzoyl(5-Br-2-OH)}-[X1]GFLGTKPKG-OH) is less than 3?
Given back: T

Asked: I wonder whether `C/C(=N\OCC(=O)NCC(=O)N[C@@H](Cc1ccccc1)C(=O)N[C@@H](CC(C)C)C(=O)NCC(=O)N[C@H](C(=O)N[C@@H](CCCCN)C(=O)N1CCC[C@H]1C(=O)N[C@@H](CCCNC(=N)N)C(=O)O)[C@@H](C)O)c1ccc(NC(=O)c2cc(Br)ccc2O)cc1` has selectivity ratio below 3. Can you tell?
Given back: F

Asked: # check: selectivity ratio < 3 for `C/C(=N\OCC(=O)N[C@H](C(=O)N[C@@H](CCCCN)C(=O)N1CCC[C@H]1C(=O)N1CCC[C@H]1C(=O)N[C@@H](CCCNC(=N)N)C(=O)O)[C@@H](C)O)c1ccc(NC(=O)c2cc(Br)ccc2O)cc1`
Given back: F

Asked: # check: selectivity ratio < 3 for CCCCCCCCCCCCCCCC(=O)NCCCC[C@H](NC(=O)[C@@H]1CCCN1C(=O)[C@H](CCCCN)NC(=O)[C@@H](NC(=O)CO/N=C(\C)c1ccc(NC(=O)c2cc(Br)ccc2O)cc1)[C@@H](C)O)C(=O)NCC(N)=O ({Benzoyl(5-Br-2-OH)}-[X1]TKPK(Palmitoyl)G-NH2)
Given back: T

----------
assay: Selectivity index, ratio of IC50 for cytostatic activity against human MONO-MAC-6 cells to MIC for antimycobacterial activity against Mycobacterium tuberculosis H37Rv ATCC 27294; assay type: toxicity, cell-based; settings: read-out: Selectivity Index
*1 amine or outer side, *2 acyl side, *3 side chain or, on linkers, in order; H or OH if unused. Where a SMILES comes first, the peptide text is derived from it. [ ]: non-standard residue; d: D form. The star is where a group is joined. X1 = C/C(=N\OCC(=O)[*:2])c1ccc(N[*:1])cc1; Benzoyl(5-Br-2-OH) = O=C(c1cc(Br)ccc1O)*
Assignment: determine reported selectivity ratio for the given molecules.

Reference set (3 entries):
C/C(=N\OCC(=O)N[C@H](C(=O)N[C@@H](CCCCN)C(=O)N1CCC[C@H]1C(=O)N[C@@H](CCCCN)C(=O)NCC(=O)O)[C@@H](C)O)c1ccc(NC(=O)c2cc(Br)ccc2O)cc1 ({Benzoyl(5-Br-2-OH)}-[X1]TKPKG-OH) = > 3.1
C/C(=N\OCC(=O)NCC(=O)O)c1ccc(NC(=O)c2cc(Br)ccc2O)cc1 = > 0.9
C/C(=N\OCC(=O)NCC(=O)N[C@@H](Cc1ccccc1)C(=O)N[C@@H](CC(C)C)C(=O)NCC(=O)N[C@H](C(=O)N[C@@H](CCCCN)C(=O)N1CCC[C@H]1C(=O)N1CCC[C@H]1C(=O)N[C@@H](CCCNC(=N)N)C(=O)O)[C@@H](C)O)c1ccc(NC(=O)c2cc(Br)ccc2O)cc1 = > 6.8

Consider the additional molecule presented here.
Asked: Record request: selectivity ratio value, item C/C(=N\OCC(=O)NCC(=O)N[C@@H](Cc1ccccc1)C(=O)N[C@@H](CC(C)C)C(=O)NCC(=O)N[C@H](C(=O)N[C@@H](CCCCN)C(=O)N1CCC[C@H]1C(=O)N[C@@H](CCCCN)C(=O)NCC(N)=O)[C@@H](C)O)c1ccc(NC(=O)c2cc(Br)ccc2O)cc1 ({Benzoyl(5-Br-2-OH)}-[X1]GFLGTKPKG-NH2)
Given back: > 6.5
